Data origin, for the record: paper PMC6591795

# Tgt: GTB (Homo sapiens, UniProt P16442, G235S/G268A/L266M/R176G)
# Test Summary: methyl TROSY CSP titration, TITAN lineshape analysis
# Type: binding
# Test Context: K D, GTB in presence of saturating B-Tris
Metric Name: Kd (µM)
Quick reminder: number only, in µM, skip the unit.

// fetch Kd; item: O=c1ccn([C@@H]2O[C@H](COP(=O)(O)OP(=O)(O)O)[C@@H](O)[C@H]2O)c(=O)[nH]1 [UDP, uridine diphosphate] ; system: GTB (Homo sapiens, UniProt P16442, G235S/G268A/L266M/R176G)
660

---

# Tgt: GTB (Homo sapiens, UniProt P16442, G235S/G268A/L266M/R176G)
# Sequence (P16442 64-354 R176G/G235S/L266M/G268A limits assumed): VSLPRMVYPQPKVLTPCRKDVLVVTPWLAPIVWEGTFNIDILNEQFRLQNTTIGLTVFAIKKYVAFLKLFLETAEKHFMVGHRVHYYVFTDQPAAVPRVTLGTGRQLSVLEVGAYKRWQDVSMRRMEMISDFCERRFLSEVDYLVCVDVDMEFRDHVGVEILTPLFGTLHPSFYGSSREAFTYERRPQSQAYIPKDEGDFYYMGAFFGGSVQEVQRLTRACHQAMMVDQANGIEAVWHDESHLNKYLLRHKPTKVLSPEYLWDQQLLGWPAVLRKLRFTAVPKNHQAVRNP
# Test Summary: methyl TROSY CSP titration, TITAN lineshape analysis
# Assay type: binding
# Test Context: K D, GTB in presence of saturating H-Tris III
Metric Name: pKd
FYI, pKd means -log10 of a concentration in mol per litre.

Please report the measured pKd for O=c1ccn([C@@H]2O[C@H](COP(=O)(O)OP(=O)(O)O)[C@@H](O)[C@H]2O)c(=O)[nH]1 [UDP, uridine diphosphate]
4.54

---

# Tgt: GTB (Homo sapiens, UniProt P16442, G235S/G268A/L266M/R176G)
# Test Summary: methyl TROSY CSP titration, TITAN lineshape analysis
# Format: binding
# Test Context: K D, GTB in presence of saturating H-Tris V
Metric Name: Kd (µM)
Quick reminder: number only, in µM, skip the unit.

Please report the measured Kd for O=c1ccn([C@@H]2O[C@H](COP(=O)(O)OP(=O)(O)O)[C@@H](O)[C@H]2O)c(=O)[nH]1 [UDP, uridine diphosphate]
31

---

# Tgt: GTB (Homo sapiens, UniProt P16442, G235S/G268A/L266M/R176G)
# Test Summary: methyl TROSY CSP titration, TITAN lineshape analysis
# Assay type: binding
# Test Context: K D, GTB in presence of saturating H-Tris I
Metric Name: pKd
FYI, pKd means -log10 of a concentration in mol per litre.

Please report the measured pKd for O=c1ccn([C@@H]2O[C@H](COP(=O)(O)OP(=O)(O)O)[C@@H](O)[C@H]2O)c(=O)[nH]1 [UDP, uridine diphosphate]
4.42
